B1: PCDHGA10 (parent)
chain: FHELQMQVTASDSGDPPLSSNVSL

Variants of: B1
TEST SUMMARY: protein stability index of a GFP-peptide fusion (GPS, HEK-293T) (PSI 1-6); higher = more stable;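 also: lentivirally expressed fusions sorted by FACS into six bins by GFP to DsRed ratio, PSI derived from sequencing read proportions per bin multiplied by bin number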
TEST CONTEXT: c terminus: a fixed tail appended
// reported protein stability index per item
Kindly provide the number alone.

MUTANT ID | protein stability index
P16R | 2.19
S23C | 1.72
T9C | 1.93
D15K | 1.85
V22H | 3.13

Fill blank: measured protein stability index of the variant E3Y is ____.
2.26

Okay, and Q7S ?
1.74

Okay, and S20E ?
2.75

Okay, and V22N ?
2.77

Okay, and L24F ?
2.06

Okay, and S23F ?
2.39
